system.under.test: UniProt P25929
Sequence (P25929 whole entry): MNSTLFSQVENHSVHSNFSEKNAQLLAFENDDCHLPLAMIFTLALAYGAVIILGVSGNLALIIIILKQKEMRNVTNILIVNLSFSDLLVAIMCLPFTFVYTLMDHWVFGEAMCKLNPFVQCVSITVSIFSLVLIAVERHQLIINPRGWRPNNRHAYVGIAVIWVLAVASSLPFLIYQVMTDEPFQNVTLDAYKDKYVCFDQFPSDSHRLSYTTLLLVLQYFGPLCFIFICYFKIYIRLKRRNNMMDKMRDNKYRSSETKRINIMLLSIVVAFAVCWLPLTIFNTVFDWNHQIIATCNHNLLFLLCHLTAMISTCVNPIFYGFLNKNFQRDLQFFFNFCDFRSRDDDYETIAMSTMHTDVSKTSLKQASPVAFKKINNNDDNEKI
test.summary: Affinity against Neuropeptide Y receptor Y1 in SK-N-MC cell line
Format: cell-based
measurement.type: pIC50
Interpret pIC50 as the negative base-10 log of the concentration measured in mol/L.

Return value of pIC50 for input `CC(=O)N[C@@H](C)C(=O)N[C@@H](CO)C(=O)N[C@@H](CC(C)C)C(=O)N[C@@H](CCCN=C(N)N)C(=O)N[C@@H](Cc1c[nH]cn1)C(=O)N[C@@H](Cc1ccc(O)cc1)C(=O)N[C@@H](CC(C)C)C(=O)N[C@@H](CC(N)=O)C(=O)N[C@@H](Cc1c[nH]c2ccccc12)C(=O)N[C@H](C(=O)N[C@H](C(=O)N[C@@H](CCCN=C(N)N)C(=O)N[C@@H](CCC(N)=O)C(=O)N[C@@H](CCCN=C(N)N)C(=O)N[C@@H](Cc1ccc(O)cc1)C(N)=O)[C@@H](C)O)C(C)C` , no commentary.
6.60

* * *

The reader will find reported pIC50 values listed item by item below.
system.under.test: Neuropeptide Y receptor type 2 (Homo sapiens, UniProt P49146)
Sequence (P49146 whole entry): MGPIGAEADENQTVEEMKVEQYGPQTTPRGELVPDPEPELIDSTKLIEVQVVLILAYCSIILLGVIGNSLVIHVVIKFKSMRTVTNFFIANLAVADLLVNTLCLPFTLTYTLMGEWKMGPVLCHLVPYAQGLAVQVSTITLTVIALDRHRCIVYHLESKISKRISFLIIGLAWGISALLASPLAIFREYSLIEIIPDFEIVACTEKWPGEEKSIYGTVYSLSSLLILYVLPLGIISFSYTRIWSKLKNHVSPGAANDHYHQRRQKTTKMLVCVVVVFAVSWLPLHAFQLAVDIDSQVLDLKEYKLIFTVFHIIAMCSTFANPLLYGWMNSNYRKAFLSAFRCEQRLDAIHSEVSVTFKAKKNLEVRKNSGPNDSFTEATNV
test.summary: Affinity against Neuropeptide Y receptor Y2 in SK-N-BE2 cell line
Where a SMILES comes first, the peptide text is derived from it. [ ]: non-standard residue; d: D form. The star is where a group is joined. Argψ(CH2NH)TyrNH2 = N=C(N)NCCC[C@@H](CN[C@@H](Cc1ccc(O)cc1)C(N)=O)N*; 1Nal = N[C@@H](Cc1cccc2ccccc12)C(=O)O
Scale: pIC50 equals -log10([C]), with [C] in mol/L.

CCCC[C@H](NC(=O)[C@H](CO)NC(=O)[C@H](C)NC(C)=O)C(=O)N[C@@H](CCCN=C(N)N)C(=O)N[C@@H](Cc1c[nH]cn1)C(=O)N[C@@H](Cc1ccc(O)cc1)C(=O)N[C@@H](CCCC)C(=O)N[C@@H](CC(N)=O)C(=O)N[C@@H](Cc1c[nH]c2ccccc12)C(=O)N[C@@H](CCC)C(=O)N[C@H](C(=O)N[C@@H](CCCN=C(N)N)C(=O)N[C@@H](CCC(N)=O)C(=O)N[C@@H](CCCN=C(N)N)CN[C@@H](Cc1ccc(O)cc1)C(N)=O)[C@@H](C)O | 8.76
CC(=O)N[C@@H](C)C(=O)N[C@@H](CO)C(=O)N[C@@H](CC(C)C)C(=O)N[C@@H](CCCN=C(N)N)C(=O)N[C@@H](Cc1c[nH]cn1)C(=O)N[C@@H](Cc1ccc(O)cc1)C(=O)N[C@H](CN[C@@H](CC(N)=O)C(=O)N[C@@H](CC(C)C)C(=O)N[C@H](C(=O)N[C@H](C(=O)N[C@@H](CCCN=C(N)N)C(=O)N[C@@H](CCC(N)=O)C(=O)N[C@@H](CCCN=C(N)N)C(=O)N[C@@H](Cc1ccc(O)cc1)C(N)=O)[C@@H](C)O)C(C)C)CC(C)C | 7.26
CC(=O)N[C@@H](C)C(=O)N[C@@H](CO)C(=O)N[C@@H](CC(C)C)C(=O)N[C@@H](CCCNC(=N)N)C(=O)N[C@@H](Cc1cnc[nH]1)C(=O)N[C@@H](Cc1ccc(O)cc1)C(=O)N[C@@H](CC(C)C)C(=O)N[C@@H](CC(N)=O)C(=O)N[C@@H](Cc1cccc2ccccc12)C(=O)N[C@H](C(=O)N[C@H](C(=O)N[C@@H](CCCNC(=N)N)C(=O)N[C@@H](CCC(N)=O)C(=O)N[C@@H](CCCNC(=N)N)C(=O)N[C@@H](Cc1ccc(O)cc1)C(N)=O)[C@@H](C)O)C(C)C (Ac-ASLRHYLN[1Nal]VTRQRY-NH2) | 8.96

Report measured pIC50 on Neuropeptide Y receptor type 2 (Homo sapiens, UniProt P49146); entry: `CCCC[C@H](NC(=O)[C@H](CO)NC(=O)[C@H](C)NC(C)=O)C(=O)N[C@@H](CCCN=C(N)N)C(=O)N[C@@H](Cc1c[nH]cn1)C(=O)N[C@@H](Cc1ccc(O)cc1)C(=O)N[C@@H](CCCC)C(=O)N[C@@H](CC(N)=O)C(=O)N[C@@H](CCCC)C(=O)N[C@@H](CCC)C(=O)N[C@H](C(=O)N[C@@H](CCCN=C(N)N)C(=O)N[C@@H](CCC(N)=O)C(=O)N[C@@H](CCCN=C(N)N)C(=O)N[C@@H](Cc1ccc(O)cc1)C(N)=O)[C@@H](C)O`
7.24

Please look at CC(=O)N[C@@H](C)C(=O)N[C@@H](CO)C(=O)N[C@@H](CC(C)C)C(=O)N[C@@H](CCCN=C(N)N)C(=O)N[C@@H](Cc1c[nH]cn1)C(=O)N[C@@H](Cc1ccc(O)cc1)C(=O)N[C@@H](CC(C)C)C(=O)N[C@@H](CC(N)=O)C(=O)N[C@@H](CC(C)C)C(=O)N[C@H](C(=O)N[C@H](C(=O)N[C@@H](CCCN=C(N)N)C(=O)N[C@@H](CCC(N)=O)C(=O)N[C@@H](CCCN=C(N)N)CN[C@@H](Cc1ccc(O)cc1)C(N)=O)[C@@H](C)O)C(C)C (Ac-ASLRHYLNLVTRQ-{Argψ(CH2NH)TyrNH2}) and tell me its recorded pIC50 on Neuropeptide Y receptor type 2 (Homo sapiens, UniProt P49146).
8.88
